- Tested on: HCT-116 cell line
- METHOD: Inhibition of cell growth, MTT tetrazolium salt assay
- Assay type: cell-based
- TEST CONDITIONS: HCT-116, at 0.1 μM
The entries below are paired with their reported HCT-116 % Inhibition at 0.1 μM.
Give your result in % as a bare value.

INSERT INTO assay_data (compound, result) VALUES
  ('CC(O)CNC(=O)c1ccc(Nc2nc(N)c(C(=O)c3c(F)cccc3F)s2)cc1 (stereo not shown)', 0),
  ('CCOC(=O)/C=C/c1ccc(NC(=O)c2ccc(Nc3nc(N)c(C(=O)c4c(F)cccc4F)s3)cc2)cc1', 0),
  ('CCCCNC(=O)c1ccc(Nc2nc(N)c(C(=O)c3c(F)cccc3F)s2)cc1', 14);

# next compound below
Form: Entry = `CCN(CC)CCCNC(=O)c1ccc(Nc2nc(N)c(C(=O)c3c(F)cccc3F)s2)cc1` | System = HCT-116 cell line | HCT-116 % Inhibition at 0.1 μM = ____
0

---

Parameter CDK4 % Inhibition at 0.03 μM: see the listing below.
- SYSTEM UNDER TEST: human CDK4/cyclin D3 (Homo sapiens, UniProt P11802)
- Construct: made in house; host or cells: insect cells co-infected with baculovirus vectors
- Sequence (P11802 whole entry): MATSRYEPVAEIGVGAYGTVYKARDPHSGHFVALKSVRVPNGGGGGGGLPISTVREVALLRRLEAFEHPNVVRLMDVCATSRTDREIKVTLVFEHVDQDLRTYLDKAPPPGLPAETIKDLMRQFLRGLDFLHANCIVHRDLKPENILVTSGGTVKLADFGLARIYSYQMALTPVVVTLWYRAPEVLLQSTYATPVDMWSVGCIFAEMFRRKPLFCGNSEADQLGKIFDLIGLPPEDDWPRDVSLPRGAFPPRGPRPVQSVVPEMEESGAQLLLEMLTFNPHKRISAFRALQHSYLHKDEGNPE
- Sequence (P30281 1-264 partner limits assumed): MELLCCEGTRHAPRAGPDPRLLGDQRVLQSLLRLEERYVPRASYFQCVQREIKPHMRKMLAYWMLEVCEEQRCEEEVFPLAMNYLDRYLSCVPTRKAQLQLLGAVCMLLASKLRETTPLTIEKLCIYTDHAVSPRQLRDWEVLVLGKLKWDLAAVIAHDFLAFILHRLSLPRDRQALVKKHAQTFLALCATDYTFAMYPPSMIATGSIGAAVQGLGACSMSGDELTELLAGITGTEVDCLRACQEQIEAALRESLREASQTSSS
- METHOD: Inhibition of CDK4/cyclin D retinoblastoma kinase activity (Ki; % inhibition)
- Assay type: biochemical
- TEST CONDITIONS: at 0.03 μM
Please state the figure in %; there is no need to write the unit.

INSERT INTO assay_data (molecule, result) VALUES
  ('CC(NC(=O)c1ccc(Nc2nc(N)c(C(=O)c3c(F)cccc3F)s2)cc1)c1ccccc1 (centres unmarked) [Example G162]', 20),
  ('Nc1nc(Nc2ccc(C(=O)NCCNc3ccccc3)cc2)sc1C(=O)c1c(F)cccc1F [Example G134]', 38);

Could you tell me which CDK4 % Inhibition at 0.03 μM is on file for Nc1nc(Nc2ccc(C(=O)Nc3ccc(Cl)c(Cl)c3)cc2)sc1C(=O)c1c(F)cccc1F [Example G84] ?
3

---

- SYSTEM UNDER TEST: human CDK4/cyclin D3 (Homo sapiens, UniProt P11802)
- Construct: made in house; host or cells: insect cells co-infected with baculovirus vectors
- METHOD: Inhibition of CDK4/cyclin D retinoblastoma kinase activity (Ki; % inhibition)
- Format: biochemical
- TEST CONDITIONS: at 0.03 μM
QUANTITY KIND: CDK4 % Inhibition at 0.03 μM (%)
Hi! Could you send only the number? It should be in %, unit omitted.

Below, 3 compounds whose answers are already recorded.
INSERT INTO assay_data (compound, quantity_kind, readout_units, result) VALUES
  ('COCCN(CCOC)C(=O)c1ccc(Nc2nc(N)c(C(=O)c3c(F)cccc3F)s2)cc1 [Example G36]', 'CDK4 % Inhibition at 0.03 μM', '%', 6),
  ('Nc1nc(Nc2ccc(C(=O)NC3CC3)cc2)sc1C(=O)c1c(F)cccc1F [Example G123]', 'CDK4 % Inhibition at 0.03 μM', '%', 12),
  ('CCN(CC)CCCNC(=O)c1ccc(Nc2nc(N)c(C(=O)c3c(F)cccc3F)s2)cc1 [Example G127]', 'CDK4 % Inhibition at 0.03 μM', '%', 29);

Now let's try a different one.
// lookup CDK4 % Inhibition at 0.03 μM for CC(C)OCCNC(=O)c1ccc(Nc2nc(N)c(C(=O)c3c(F)cccc3F)s2)cc1 [Example G168]
17

---

- SYSTEM UNDER TEST: human CDK4/cyclin D3 (Homo sapiens)
- Construct: made in house; host or cells: insect cells co-infected with baculovirus vectors
- METHOD: Inhibition of CDK4/cyclin D retinoblastoma kinase activity (Ki; % inhibition)
- Assay type: biochemical
- TEST CONDITIONS: 0.03 μM compound
Quick reference for CDK4 % Inhibition at 0.03 μM among some compounds
Write down the numeric answer in % and omit the unit.

Would you mind telling me what CDK4 % Inhibition at 0.03 μM value was observed for `C=C(C)CNC(=O)c1ccc(Nc2nc(N)c(C(=O)c3c(F)cccc3F)s2)cc1` ?
19

---

- Tested on: HCT-116 cell line
- METHOD: Inhibition of cell growth, MTT tetrazolium salt assay
- Type: cell-based
- TEST CONDITIONS: HCT-116 cells, 0.25 μM compound
Response field class: string, computed from recorded HCT-116 % Inhibition at 0.25 μM by ranges interval 1 = under 50%, interval 2 = from 50% up to 60%, interval 3 = 60% and over

As a guide, the following entries are already answered.
INSERT INTO assay_data (chemical_string, label) VALUES
  ('Cc1cc(NC(=O)c2ccc(Nc3nc(N)c(C(=O)c4c(F)cccc4F)s3)cc2)no1', 'interval 1'),
  ('CCCCOc1ccc(NC(=O)c2ccc(Nc3nc(N)c(C(=O)c4c(F)cccc4F)s3)cc2)cc1', 'interval 2'),
  ('COc1cccc(CNC(=O)c2ccc(Nc3nc(N)c(C(=O)c4c(F)cccc4F)s3)cc2)c1', 'interval 3'),
  ('Cc1ccc(CNC(=O)c2ccc(Nc3nc(N)c(C(=O)c4c(F)cccc4F)s3)cc2)o1', 'interval 3'),
  ('Nc1nc(Nc2ccc(C(=O)NCc3ccc(Cl)cc3)cc2)sc1C(=O)c1c(F)cccc1F', 'interval 3'),
  ('CC(=O)N[C@@H]1CCN(C(=O)c2ccc(Nc3nc(N)c(C(=O)c4c(F)cccc4F)s3)cc2)C1', 'interval 1'),
  ('Nc1nc(Nc2ccc(C(=O)N3CCN(CCc4cccs4)CC3)cc2)sc1C(=O)c1c(F)cccc1F', 'interval 1'),
  ('COc1cccc(CCNC(=O)c2ccc(Nc3nc(N)c(C(=O)c4c(F)cccc4F)s3)cc2)c1OC', 'interval 2');

Returns: class label. Input: `Nc1nc(Nc2ccc(C(=O)N3CCC(CO)CC3)cc2)sc1C(=O)c1c(F)cccc1F`
interval 1

Please do the same for `Nc1nc(Nc2ccc(C(=O)NCCCCCO)cc2)sc1C(=O)c1c(F)cccc1F` as well.
interval 1

Repeat for the following compound: `CCSCCNC(=O)c1ccc(Nc2nc(N)c(C(=O)c3c(F)cccc3F)s2)cc1`
interval 3

For `Nc1nc(Nc2ccc(C(=O)NCCc3ccc(Cl)c(Cl)c3)cc2)sc1C(=O)c1c(F)cccc1F` then?
interval 1

---

Listing: HCT-116 % Inhibition at 0.25 μM of selected molecules
- Tested on: HCT-116 cell line
- METHOD: Inhibition of cell growth, MTT tetrazolium salt assay
- Type: cell-based
- TEST CONDITIONS: HCT-116 cells, 0.25 μM compound
Number only, in %; omit the unit.

Some solved entries appear below for comparison.
INSERT INTO assay_data (molecule, system_under_test, quantity_kind, readout_units, result) VALUES
  ('CCN(CCCCO)C(=O)c1ccc(Nc2nc(N)c(C(=O)c3c(F)cccc3F)s2)cc1', 'HCT-116 cell line', 'HCT-116 % Inhibition at 0.25 μM', '%', 50),
  ('Nc1nc(Nc2ccc(C(=O)NCc3cccc(F)c3)cc2)sc1C(=O)c1c(F)cccc1F', 'HCT-116 cell line', 'HCT-116 % Inhibition at 0.25 μM', '%', 67),
  ('CCC(C)CN(CCO)C(=O)c1ccc(Nc2nc(N)c(C(=O)c3c(F)cccc3F)s2)cc1 (stereo not shown)', 'HCT-116 cell line', 'HCT-116 % Inhibition at 0.25 μM', '%', 49),
  ('Nc1nc(Nc2ccc(C(=O)NCc3cccc(Cl)c3Cl)cc2)sc1C(=O)c1c(F)cccc1F', 'HCT-116 cell line', 'HCT-116 % Inhibition at 0.25 μM', '%', 54),
  ('Nc1nc(Nc2ccc(C(=O)Nc3cccc(SC(F)(F)F)c3)cc2)sc1C(=O)c1c(F)cccc1F', 'HCT-116 cell line', 'HCT-116 % Inhibition at 0.25 μM', '%', 55),
  ('CN(CCC1OCCO1)C(=O)c1ccc(Nc2nc(N)c(C(=O)c3c(F)cccc3F)s2)cc1', 'HCT-116 cell line', 'HCT-116 % Inhibition at 0.25 μM', '%', 52);

Could you share which HCT-116 % Inhibition at 0.25 μM value was measured for `CCOC(CNC(=O)c1ccc(Nc2nc(N)c(C(=O)c3c(F)cccc3F)s2)cc1)OCC` ?
50

What about this molecule? `Cc1ccccc1CNC(=O)c1ccc(Nc2nc(N)c(C(=O)c3c(F)cccc3F)s2)cc1`
67

Also, `COC(=O)c1ccc(NC(=O)c2ccc(Nc3nc(N)c(C(=O)c4c(F)cccc4F)s3)cc2)cc1OC` please.
54

And `Cc1cccc(NC(=O)c2ccc(Nc3nc(N)c(C(=O)c4c(F)cccc4F)s3)cc2)c1` ?
70

---

- SYSTEM UNDER TEST: human CDK4/cyclin D3 (Homo sapiens, UniProt P11802)
- Construct: made in house; host or cells: insect cells co-infected with baculovirus vectors
- METHOD: Inhibition of CDK4/cyclin D retinoblastoma kinase activity (Ki; % inhibition)
- Assay type: biochemical
- TEST CONDITIONS: at 0.03 μM
Measured CDK4 % Inhibition at 0.03 μM of individual entries

INSERT INTO assay_data (molecule, quantity_kind, result) VALUES
  ('CC(O)c1ccc(NC(=O)c2ccc(Nc3nc(N)c(C(=O)c4c(F)cccc4F)s3)cc2)cc1 (centres unmarked)', 'CDK4 % Inhibition at 0.03 μM', '4%'),
  ('NC(=O)C1CCCN(C(=O)c2ccc(Nc3nc(N)c(C(=O)c4c(F)cccc4F)s3)cc2)C1 (centres unmarked)', 'CDK4 % Inhibition at 0.03 μM', '10%'),
  ('Nc1nc(Nc2ccc(C(=O)N3CCN(Cc4ccc5c(c4)OCO5)CC3)cc2)sc1C(=O)c1c(F)cccc1F', 'CDK4 % Inhibition at 0.03 μM', '22%');

Give the measured CDK4 % Inhibition at 0.03 μM of `CN(CCc1ccccc1)C(=O)c1ccc(Nc2nc(N)c(C(=O)c3c(F)cccc3F)s2)cc1` .
6%

Repeat with CC(CO)NC(=O)c1ccc(Nc2nc(N)c(C(=O)c3c(F)cccc3F)s2)cc1 (centres unmarked) [Example G175]
31%

// next record `N#Cc1cccc(NC(=O)c2ccc(Nc3nc(N)c(C(=O)c4c(F)cccc4F)s3)cc2)c1`
18%

Another: `Nc1nc(Nc2ccc(C(=O)NCCCN3CCCC3)cc2)sc1C(=O)c1c(F)cccc1F`
40%

// next record `COc1ccccc1CCNC(=O)c1ccc(Nc2nc(N)c(C(=O)c3c(F)cccc3F)s2)cc1`
20%
